target-or-test-system: PI3Kγ (Homo sapiens (Human), UniProt P48736)
Sequence (P48736 whole entry, canonical isoform): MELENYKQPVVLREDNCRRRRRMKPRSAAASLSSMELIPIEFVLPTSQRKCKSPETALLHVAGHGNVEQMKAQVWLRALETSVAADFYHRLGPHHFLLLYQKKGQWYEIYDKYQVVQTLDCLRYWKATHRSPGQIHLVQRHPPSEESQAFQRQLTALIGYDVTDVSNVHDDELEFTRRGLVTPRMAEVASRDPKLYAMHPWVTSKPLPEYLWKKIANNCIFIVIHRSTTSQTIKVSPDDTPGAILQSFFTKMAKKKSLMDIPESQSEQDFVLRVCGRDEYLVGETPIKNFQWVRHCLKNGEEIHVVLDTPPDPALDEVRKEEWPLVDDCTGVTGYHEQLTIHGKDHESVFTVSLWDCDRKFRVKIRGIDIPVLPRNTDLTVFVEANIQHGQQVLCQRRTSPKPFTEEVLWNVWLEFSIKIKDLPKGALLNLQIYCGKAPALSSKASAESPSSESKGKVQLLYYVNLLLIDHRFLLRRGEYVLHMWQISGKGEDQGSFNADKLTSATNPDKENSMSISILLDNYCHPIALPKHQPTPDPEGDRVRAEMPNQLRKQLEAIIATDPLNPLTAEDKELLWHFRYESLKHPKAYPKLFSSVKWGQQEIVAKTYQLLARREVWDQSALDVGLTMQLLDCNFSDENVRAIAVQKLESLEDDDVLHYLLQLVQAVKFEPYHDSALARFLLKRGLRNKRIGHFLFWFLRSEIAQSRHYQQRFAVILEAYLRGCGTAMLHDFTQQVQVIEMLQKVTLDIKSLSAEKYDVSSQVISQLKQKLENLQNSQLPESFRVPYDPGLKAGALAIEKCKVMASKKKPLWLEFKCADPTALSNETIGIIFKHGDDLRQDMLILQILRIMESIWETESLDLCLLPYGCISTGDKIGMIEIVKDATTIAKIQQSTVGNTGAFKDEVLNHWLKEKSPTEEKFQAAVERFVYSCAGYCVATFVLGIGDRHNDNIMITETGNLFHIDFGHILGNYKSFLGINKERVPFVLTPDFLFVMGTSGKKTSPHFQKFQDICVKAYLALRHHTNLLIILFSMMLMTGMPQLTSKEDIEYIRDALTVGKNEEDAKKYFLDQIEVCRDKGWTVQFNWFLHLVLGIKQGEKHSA
assay-explanation: PI3K gamma isoform inhibition
pIC50: −log10 of the molar value.
parameter-measured: pIC50

Here's what some known entries look like.
compound | pIC50
O=c1cc(N2CCSCC2)oc2c(-c3ccc4c(c3)OCCO4)csc12 [Cmpd 124] | 5.33
COC(=O)c1ccc(-c2csc3c(=O)cc(N4CCOCC4)oc23)cc1 [Cmpd 44] | 6.26
CC(C)(C)c1cc(NC(=O)Nc2cccc(-c3csc4c(=O)cc(N5CCOCC5)oc34)c2)no1 [Cmpd 122] | 5.06
O=C(Nc1ccc(-c2csc3c(=O)cc(N4CCOCC4)oc23)cc1)c1ccncc1 [Cmpd 120] | 6.25
O=c1cc(N2CCOCC2)oc2c(-c3ccc4c(c3)OCCO4)csc12 [Cmpd 28] | 6.80

a = O=c1cc(N2CCOCC2)oc2c(-c3ccccc3)csc12 [Cmpd 6]
b = O=C(O)c1ccc(-c2csc3c(=O)cc(N4CCOCC4)oc23)cc1 [Cmpd 100]
Kindly compare a with b and tell me which has the lower pIC50 figure. Pick one and reply with its label.
a
